Sourced from patent US11253516B2

system tested: EGFR del19/T790M (Homo sapiens (Human), UniProt P00533, DEL746-750/T790M)
Sequence (P00533 other isoform, or with tags, fused parts or gaps T790M/del 1-668/del 746-750 limits assumed): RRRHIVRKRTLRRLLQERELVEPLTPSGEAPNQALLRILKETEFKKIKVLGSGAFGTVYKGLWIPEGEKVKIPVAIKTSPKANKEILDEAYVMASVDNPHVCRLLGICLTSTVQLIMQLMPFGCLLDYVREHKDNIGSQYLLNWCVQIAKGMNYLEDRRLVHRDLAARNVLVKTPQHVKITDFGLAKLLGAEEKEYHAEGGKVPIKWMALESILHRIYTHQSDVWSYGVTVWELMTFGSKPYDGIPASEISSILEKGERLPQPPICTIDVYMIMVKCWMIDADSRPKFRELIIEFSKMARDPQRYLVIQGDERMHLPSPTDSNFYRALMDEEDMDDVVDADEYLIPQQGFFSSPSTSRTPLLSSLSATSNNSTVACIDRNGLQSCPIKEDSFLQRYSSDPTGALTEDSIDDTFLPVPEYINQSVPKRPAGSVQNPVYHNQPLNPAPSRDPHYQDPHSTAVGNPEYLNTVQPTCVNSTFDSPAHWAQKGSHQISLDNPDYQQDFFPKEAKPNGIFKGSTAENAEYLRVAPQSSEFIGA
procedure summary: HTRF enzyme assay, EGFR del19/T790M
assay conditions: recombinant enzyme
measurement name: IC50 (nM)
Field: numeric (nM). Do not append units.

Give IC50 only, for COc1cc(N2CCC(N3CCN(CCO)CC3)CC2)ccc1Nc1ncc(Cl)c(Nc2ccccc2NS(C)(=O)=O)n1 [Example 22] , using EGFR del19/T790M (Homo sapiens (Human), UniProt P00533, DEL746-750/T790M) data.
31

Provide measured IC50 on EGFR del19/T790M (Homo sapiens (Human), UniProt P00533, DEL746-750/T790M) for COc1cc(C2CCN(C3CCN(CCO)CC3)CC2)ccc1Nc1ncc(Cl)c(Nc2ccccc2NS(C)(=O)=O)n1 [Example 14] please.
95

Identify measured IC50 obtained with EGFR del19/T790M (Homo sapiens (Human), UniProt P00533, DEL746-750/T790M) for COc1cc(C2CCN(C3CCNCC3)CC2)ccc1Nc1ncc(Cl)c(Nc2ccccc2NS(C)(=O)=O)n1 [Example 16] .
340

Consider the compound COc1cc(C2CCN(C)CC2)ccc1Nc1ncc(Cl)c(Nc2ccccc2NS(C)(=O)=O)n1 [Example 12] tested on EGFR del19/T790M (Homo sapiens (Human), UniProt P00533, DEL746-750/T790M); state its IC50.
130
